Collected binding signal values appear next to each entry.
Target Or Test System: GST-Nv-NF-kB (Ser allele) (Nematostella vectensis, UniProt A7UNT2 2-411)
Sequence: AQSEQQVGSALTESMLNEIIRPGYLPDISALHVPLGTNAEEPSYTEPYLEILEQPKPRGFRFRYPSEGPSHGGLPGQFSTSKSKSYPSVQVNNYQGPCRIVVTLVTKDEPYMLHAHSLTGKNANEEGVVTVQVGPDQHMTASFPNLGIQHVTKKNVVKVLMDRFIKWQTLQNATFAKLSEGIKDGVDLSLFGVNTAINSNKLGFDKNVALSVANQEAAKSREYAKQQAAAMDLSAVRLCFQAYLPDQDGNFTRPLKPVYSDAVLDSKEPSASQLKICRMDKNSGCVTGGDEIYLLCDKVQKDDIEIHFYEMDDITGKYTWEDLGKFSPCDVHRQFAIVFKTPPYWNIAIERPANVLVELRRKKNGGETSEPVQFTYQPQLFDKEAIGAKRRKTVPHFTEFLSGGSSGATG
Test Summary: protein-binding microarray (PBM); PBM: ~300 nM protein, 6 mM HEPES pH 7.8, 80 mM KCl, 0.5 mM EDTA, 0.5 mM EGTA, 6% glycerol, 35 ng/ul poly-dIdC, 1% milk, 1 h, room temperature; high values mean tight binding
Measurement Parameters: dsDNA, one strand shown

| Record Sequence | binding signal [z-score] |
| --- | --- |
| CCGATTAACATCAGAAAATGCCCTGATGTTAATCGGGTCTTGATTCGCTTGACGCTGCTG | 1.55 |
| CCGATTAACATCAGGATATTCCCTGATGTTAATCGGGTCTTGATTCGCTTGACGCTGCTG | 4.19 |
| CCGATTAACATCAGACCTCCCCCTGATGTTAATCGGGTCTTGATTCGCTTGACGCTGCTG | 4.4 |
| CCGATTAACATCACCAAACCCCCTGATGTTAATCGGGTCTTGATTCGCTTGACGCTGCTG | 6.38 |
| CCGATTAACATCAGGGGGAGTCATGATGTTAATCGGGTCTTGATTCGCTTGACGCTGCTG | 5.02 |
| CCGATTAACATCAGGGCATACCCTGATGTTAATCGGGTCTTGATTCGCTTGACGCTGCTG | 1.31 |
| CCGATTAACATCAGAGAAGTCCCTGATGTTAATCGGGTCTTGATTCGCTTGACGCTGCTG | 5.95 |
| CCGATTAACATCAGGAAGACCCCTGATGTTAATCGGGTCTTGATTCGCTTGACGCTGCTG | 1.11 |
| CCGATTAACATCACGGTACTTCCTGATGTTAATCGGGTCTTGATTCGCTTGACGCTGCTG | 4.94 |

---

Target Or Test System: GST-Nv-NF-kB (Ser allele) (Nematostella vectensis, UniProt A7UNT2 2-411)
Sequence: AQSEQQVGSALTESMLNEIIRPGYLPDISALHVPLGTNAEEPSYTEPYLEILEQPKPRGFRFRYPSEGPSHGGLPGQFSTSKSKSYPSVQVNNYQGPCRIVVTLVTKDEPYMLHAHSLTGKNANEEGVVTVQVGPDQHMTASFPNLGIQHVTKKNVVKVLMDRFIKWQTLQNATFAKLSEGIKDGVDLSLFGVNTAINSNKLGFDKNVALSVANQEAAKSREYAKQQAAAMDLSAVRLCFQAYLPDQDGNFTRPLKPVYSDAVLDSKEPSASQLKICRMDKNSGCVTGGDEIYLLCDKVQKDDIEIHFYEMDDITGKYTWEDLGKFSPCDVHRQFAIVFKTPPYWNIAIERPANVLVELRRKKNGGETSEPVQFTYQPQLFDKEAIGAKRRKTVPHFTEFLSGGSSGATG
Test Summary: protein-binding microarray (PBM); PBM: ~300 nM protein, 6 mM HEPES pH 7.8, 80 mM KCl, 0.5 mM EDTA, 0.5 mM EGTA, 6% glycerol, 35 ng/ul poly-dIdC, 1% milk, 1 h, room temperature; Ap Aiptasia and Nv Nematostella (sea anemones) / Co Capsaspora / Aq Amphimedon (sponge) / Dm Drosophila / Hu human; RHD is the Rel homology domain; high values mean tight binding
Measurement Parameters: dsDNA, one strand shown
Collected binding signal values appear next to each entry.

| Record Sequence | binding signal (z-score) |
| --- | --- |
| CCGATTAACATCAAAGGAATCCCTGATGTTAATCGGGTCTTGATTCGCTTGACGCTGCTG | 1.78 |
| CCGATTAACATCAGGGGGAGTGATGATGTTAATCGGGTCTTGATTCGCTTGACGCTGCTG | 4.81 |
| CCGATTAACATCACAGCAGTACCTGATGTTAATCGGGTCTTGATTCGCTTGACGCTGCTG | 3.01 |
| CCGATTAACATCACGTATTTCCCTGATGTTAATCGGGTCTTGATTCGCTTGACGCTGCTG | 4.49 |
| CCGATTAACATCAGGGACACCCCTGATGTTAATCGGGTCTTGATTCGCTTGACGCTGCTG | 3.24 |
| CCGATTAACATCAAGTAAATCCCTGATGTTAATCGGGTCTTGATTCGCTTGACGCTGCTG | 1.71 |
| CCGATTAACATCACGGAATTACCTGATGTTAATCGGGTCTTGATTCGCTTGACGCTGCTG | 3.86 |
| CCGATTAACATCAAAATTTCACCTGATGTTAATCGGGTCTTGATTCGCTTGACGCTGCTG | 3.88 |
| CCGATTAACATCAGGGCAGTACCTGATGTTAATCGGGTCTTGATTCGCTTGACGCTGCTG | 2.24 |
| CCGATTAACATCAGGCTTCCCCCTGATGTTAATCGGGTCTTGATTCGCTTGACGCTGCTG | 6.08 |
| CCGATTAACATCACGTGGGGCGTTGATGTTAATCGGGTCTTGATTCGCTTGACGCTGCTG | 1.01 |
| CCGATTAACATCAATATTTCCCATGATGTTAATCGGGTCTTGATTCGCTTGACGCTGCTG | 3.55 |
| CCGATTAACATCAGGACACTCCCTGATGTTAATCGGGTCTTGATTCGCTTGACGCTGCTG | 1.43 |
| CCGATTAACATCAGAAATCCCACTGATGTTAATCGGGTCTTGATTCGCTTGACGCTGCTG | 1.91 |
| CCGATTAACATCAAAAAAATTTCTGATGTTAATCGGGTCTTGATTCGCTTGACGCTGCTG | 1.35 |
| CCGATTAACATCAATGGGAAAATTGATGTTAATCGGGTCTTGATTCGCTTGACGCTGCTG | 5.32 |
| CCGATTAACATCAAGGGGGGGGCTGATGTTAATCGGGTCTTGATTCGCTTGACGCTGCTG | 3.66 |
| CCGATTAACATCACTAATTTCCCTGATGTTAATCGGGTCTTGATTCGCTTGACGCTGCTG | 6.51 |
| CCGATTAACATCACGTTCCCCCCTGATGTTAATCGGGTCTTGATTCGCTTGACGCTGCTG | 5.78 |
| CCGATTAACATCAGGATCTCCCCTGATGTTAATCGGGTCTTGATTCGCTTGACGCTGCTG | 5.15 |
| CCGATTAACATCAGGGGGGGACATGATGTTAATCGGGTCTTGATTCGCTTGACGCTGCTG | 4.34 |
| CCGATTAACATCAAATTGCCCCCTGATGTTAATCGGGTCTTGATTCGCTTGACGCTGCTG | 4.54 |
| CCGATTAACATCACGAAAACCCCTGATGTTAATCGGGTCTTGATTCGCTTGACGCTGCTG | 5.71 |
| CCGATTAACATCAAAGTGTCCCCTGATGTTAATCGGGTCTTGATTCGCTTGACGCTGCTG | 4.51 |
| CCGATTAACATCAGGGGGGACAATGATGTTAATCGGGTCTTGATTCGCTTGACGCTGCTG | 4.45 |
| CCGATTAACATCAGGAACCCCCATGATGTTAATCGGGTCTTGATTCGCTTGACGCTGCTG | 4.62 |
| CCGATTAACATCAGGAATATTCCTGATGTTAATCGGGTCTTGATTCGCTTGACGCTGCTG | 1.09 |
| CCGATTAACATCAGAAATCCCGCTGATGTTAATCGGGTCTTGATTCGCTTGACGCTGCTG | 2.45 |
| CCGATTAACATCAGGGAAACTCATGATGTTAATCGGGTCTTGATTCGCTTGACGCTGCTG | 4.62 |
| CCGATTAACATCAGGGGAATGACTGATGTTAATCGGGTCTTGATTCGCTTGACGCTGCTG | 6.22 |
| CCGATTAACATCACCGAACCCCCTGATGTTAATCGGGTCTTGATTCGCTTGACGCTGCTG | 5.24 |
| CCGATTAACATCAGAAATCCCGATGATGTTAATCGGGTCTTGATTCGCTTGACGCTGCTG | 2.04 |
| CCGATTAACATCAAATGGGAATTTGATGTTAATCGGGTCTTGATTCGCTTGACGCTGCTG | 4.87 |
| CCGATTAACATCAGGGAAATAAATGATGTTAATCGGGTCTTGATTCGCTTGACGCTGCTG | 4.6 |
| CCGATTAACATCAGGGGGGGTACTGATGTTAATCGGGTCTTGATTCGCTTGACGCTGCTG | 4.19 |
| CCGATTAACATCAAAAAATCACCTGATGTTAATCGGGTCTTGATTCGCTTGACGCTGCTG | 5.57 |
